Target: T1, EsCas13d, nuclease-dead (Eubacterium siraeum, UniProt B0MS50, R295A;H300A;R849A;H854A)
T1 sequence: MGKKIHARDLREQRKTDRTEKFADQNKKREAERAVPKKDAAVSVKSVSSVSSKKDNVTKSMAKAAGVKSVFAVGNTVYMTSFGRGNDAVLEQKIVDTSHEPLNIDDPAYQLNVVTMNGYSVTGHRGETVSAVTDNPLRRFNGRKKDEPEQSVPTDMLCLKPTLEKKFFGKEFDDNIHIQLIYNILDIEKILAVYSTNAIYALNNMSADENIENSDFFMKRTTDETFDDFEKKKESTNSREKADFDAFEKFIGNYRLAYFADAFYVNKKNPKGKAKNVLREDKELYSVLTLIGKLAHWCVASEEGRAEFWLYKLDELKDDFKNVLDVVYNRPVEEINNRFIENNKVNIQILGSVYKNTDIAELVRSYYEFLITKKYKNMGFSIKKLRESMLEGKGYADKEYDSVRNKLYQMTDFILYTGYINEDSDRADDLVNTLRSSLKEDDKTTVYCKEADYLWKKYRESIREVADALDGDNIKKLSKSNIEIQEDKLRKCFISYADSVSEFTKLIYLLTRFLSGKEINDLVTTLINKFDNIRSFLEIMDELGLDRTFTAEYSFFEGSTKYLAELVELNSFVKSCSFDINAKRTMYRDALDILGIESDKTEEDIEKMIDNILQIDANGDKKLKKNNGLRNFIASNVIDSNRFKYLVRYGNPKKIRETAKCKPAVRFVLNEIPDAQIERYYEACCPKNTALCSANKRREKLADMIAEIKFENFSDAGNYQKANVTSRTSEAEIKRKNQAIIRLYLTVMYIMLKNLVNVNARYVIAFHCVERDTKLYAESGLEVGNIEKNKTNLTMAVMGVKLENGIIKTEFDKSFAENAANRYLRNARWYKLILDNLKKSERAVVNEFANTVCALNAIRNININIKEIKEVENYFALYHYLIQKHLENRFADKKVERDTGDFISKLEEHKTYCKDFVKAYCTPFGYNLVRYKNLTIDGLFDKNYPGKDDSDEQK
Test: crRNA (strand 1, pre-loaded); Mg2+; 40 mM Tris-HCl pH 7.5, 150 mM NaCl, 6 mM MgCl2, 1 mM DTT, 0.1% Tween-20, 0.2 mg/ml BSA; 25 C; 10 min per concentration, then washed
Conditions: tags: His6-TwinStrep-SUMO cleaved; N-terminal SNAP kept (SNAP-Surface 488); label: 3' end held by stalled T7 RNA polymerase
Please go through the items and note down their Kd.
Give bare numbers, in nM.

Worked examples, 6 binders total:
Binder | Kd / nM
target 3 insA 3' of 8,insG 3' of 5 (mixed) RNA 1: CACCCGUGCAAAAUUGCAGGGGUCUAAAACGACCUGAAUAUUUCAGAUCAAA RNA 2: GGGAAUGGAUCCACAUCUACGAAUUCGUUUUUGAUCUGAAAUAUAUCAGGGUCUGCAGAUCGGAAGAGCACACGU | 68
target 1 insG 3' of 10,insA 3' of 6 (mixed) RNA 1: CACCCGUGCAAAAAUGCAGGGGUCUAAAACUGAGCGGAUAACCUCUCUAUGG RNA 2: GGGAAUGGAUCCACAUCUACGAAUUCGUACCAUAGAGAGGUUGAUCCAGCUCACCGAGAUCGGAAGAGCACACGU | 41
target 3 C6G,U22A (mixed) RNA 1: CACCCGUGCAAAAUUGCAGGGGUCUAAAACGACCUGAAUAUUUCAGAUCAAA RNA 2: GGGAAUGGAUCCACAUCUACGAAUUCGUUAUUGAUCUGAAAUAUUGAGGUCUGCAGAUCGGAAGAGCACACGU | 26.2
target 1 insG 3' of 14,insG 3' of 9 (mixed) RNA 1: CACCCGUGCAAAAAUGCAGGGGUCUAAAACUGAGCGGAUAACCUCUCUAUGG RNA 2: GGGAAUGGAUCCACAUCUACGAAUUCGUACCAUAGAGAGGGUUAGUCCGCUCACCGAGAUCGGAAGAGCACACGU | 21.5
target 1 insA 3' of 19,insA 3' of 13 (mixed) RNA 1: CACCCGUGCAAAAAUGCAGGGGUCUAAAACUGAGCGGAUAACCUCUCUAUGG RNA 2: GGGAAUGGAUCCACAUCUACGAAUUCGUACCAUAAGAGAGAGUUAUCCGCUCACCGAGAUCGGAAGAGCACACGU | 17.9
target 1 U10A,C22G (mixed) RNA 1: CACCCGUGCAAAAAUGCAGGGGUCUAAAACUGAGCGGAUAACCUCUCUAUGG RNA 2: GGGAAUGGAUCCACAUCUACGAAUUCGUAGCAUAGAGAGGUAAUCCGCUCACCGAGAUCGGAAGAGCACACGU | 76

From here, focus on the item given below.
response.value for target 1 U8A,U19C (mixed) RNA 1: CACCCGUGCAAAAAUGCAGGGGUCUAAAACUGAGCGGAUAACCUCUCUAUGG RNA 2: GGGAAUGGAUCCACAUCUACGAAUUCGUACCACAGAGAGGUUAACCGCUCACCGAGAUCGGAAGAGCACACGU (field: Kd) = 56

Data provenance: paper PMC10786891
